Tested on: promastigotes of L. amazonensis
Test: Leishmanicidal activity assay (Alamar Blue), promastigotes
Format: cell-based, Leishmania amazonensis
Conditions: Leishmania amazonensis, 72 h, Alamar Blue, read-out: Antikinetoplastid activity IC50, L. amazonensis
List of IC50 values.

>  <molecule>
CCCCCCCCCCCCCCCCOP(=O)([O-])OCC[N+](C)(C)C [Miltefosine, miltefosine, reference compound]

>  <IC50, µM>
6.48

$$$$
>  <molecule>
COc1c(C)cc(O)cc1C/C=C(\C)CC(=O)/C=C(\C)CCCC(C)=O

>  <IC50, µM>
36.6

$$$$
>  <molecule>
COc1c(C)cc(O)cc1C/C=C(\C)CC(=O)C/C(C)=C/CC[C@@H](C)C(=O)/C=C/C(C)(C)O

>  <IC50, µM>
6.45

$$$$

* * *

Test system: intracellular amastigotes of L. amazonensis
Assay: In vitro effect against amastigote stage in infected macrophages
Format: cell-based, Leishmania amazonensis
Conditions: CC50 in murine macrophages
Description: To determine the in vitro effect against the amastigote stage of L. amazonensis, murine macrophages were infected. In a sterile 96 well-plate, macrophages of the J774A.1 cell line were placed in RPMI 1640 to reach 10^5 macrophages per well. This plate was incubated at 37 °C in a 5% CO2 atmosphere. […] After 72 h of incubation, the plates were analyzed using the same protocol for the promastigote test.
quantity measured: Selectivity index (CC50/IC50), amastigotes of L. amazonensis

>  <molecule>
COc1c(C)cc(O)cc1C/C=C(\C)CC(=O)/C=C(\C)CCC[C@@H](C)C(=O)/C=C/C(C)(C)O [1′-Methoxyamentadione (4), 1′-methoxyamentadione]

>  <comparison sign>
=

>  <reading>
0.96

$$$$
>  <molecule>
COc1c(C)cc(O)cc1C/C=C(\C)CC(=O)/C=C(\C)CCCC(C)=O [Cystomexicone B (1), cystomexicone B]

>  <comparison sign>
>

>  <reading>
11.36

$$$$
>  <molecule>
COc1c(C)cc(O)cc1C/C=C(\C)CC(=O)/C=C(/C)CCC[C@@H](C)C(=O)/C=C/C(C)(C)O [6Z-1′-Methoxyamentadione (3), 6Z-1′-methoxyamentadione]

>  <comparison sign>
=

>  <reading>
1.66

$$$$
>  <molecule>
CCCCCCCCCCCCCCCCOP(=O)([O-])OCC[N+](C)(C)C [Miltefosine, miltefosine, reference compound]

>  <comparison sign>
=

>  <reading>
23.16

$$$$
>  <molecule>
COc1c(C)cc(O)cc1C/C=C(\C)CC(=O)C/C(C)=C/CC[C@@H](C)C(=O)/C=C/C(C)(C)O [Gongolarone B (2), gongolarone B]

>  <comparison sign>
=

>  <reading>
1.50

$$$$

* * *

List of Selectivity index (CC50/IC50), L. amazonensis values.
Test system: promastigotes of L. amazonensis
Experiment: Leishmanicidal activity assay (Alamar Blue), promastigotes
Assay type: cell-based, Leishmania amazonensis
Conditions: CC50 in murine macrophages
quantity measured: Selectivity index (CC50/IC50), L. amazonensis

>  <molecule>
COc1c(C)cc(O)cc1C/C=C(\C)CC(=O)C/C(C)=C/CC[C@@H](C)C(=O)/C=C/C(C)(C)O [Gongolarone B (2), gongolarone B]

>  <comparison sign>
=

>  <reading>
3.79

$$$$
>  <molecule>
COc1c(C)cc(O)cc1C/C=C(\C)CC(=O)/C=C(/C)CCC[C@@H](C)C(=O)/C=C/C(C)(C)O [6Z-1′-Methoxyamentadione (3), 6Z-1′-methoxyamentadione]

>  <comparison sign>
=

>  <reading>
5.49

$$$$
>  <molecule>
COc1c(C)cc(O)cc1C/C=C(\C)CC(=O)/C=C(\C)CCC[C@@H](C)C(=O)/C=C/C(C)(C)O [1′-Methoxyamentadione (4), 1′-methoxyamentadione]

>  <comparison sign>
=

>  <reading>
5.41

$$$$
>  <molecule>
COc1c(C)cc(O)cc1C/C=C(\C)CC(=O)/C=C(\C)CCCC(C)=O [Cystomexicone B (1), cystomexicone B]

>  <comparison sign>
>

>  <reading>
7.61

$$$$
>  <molecule>
CCCCCCCCCCCCCCCCOP(=O)([O-])OCC[N+](C)(C)C [Miltefosine, miltefosine, reference compound]

>  <comparison sign>
=

>  <reading>
11.10

$$$$

* * *

List of CC50 at 24 h values.
Experiment: Cytotoxicity assay (Alamar Blue)
Assay type: cell-based
Details: mouse, J774A.1 murine macrophage cell line, J774A.1, 24 h, read-out: Cytotoxicity CC50, murine macrophages
Description: To carry out the experiments, promastigotes of Leishmania amazonensis (MHOM/BR/77/LTB0016) and L. donovani (MHOM/IN/90/GE1F8R) and epimastigotes of Trypanosoma cruzi (Y strain) were employed. Leishmania species were cultured in Schneider’s medium (Sigma-Aldrich, Madrid, Spain), supplemented with 10% fetal bovine serum (VWR, Biowest, Nuaillé, France) and incubated at 26 °C. […]
quantity measured: CC50 at 24 h (µM)

>  <molecule>
CCCCCCCCCCCCCCCCOP(=O)([O-])OCC[N+](C)(C)C [Miltefosine, miltefosine, reference compound]

>  <quantity measured>
CC50 at 24 h

>  <display unit>
µM

>  <comparison sign>
=

>  <reading>
72.2

$$$$
>  <molecule>
COc1c(C)cc(O)cc1C/C=C(\C)CC(=O)C/C(C)=C/CC[C@@H](C)C(=O)/C=C/C(C)(C)O

>  <quantity measured>
CC50 at 24 h

>  <display unit>
µM

>  <comparison sign>
=

>  <reading>
24.4

$$$$
>  <molecule>
COc1c(C)cc(O)cc1C/C=C(\C)CC(=O)/C=C(\C)CCCC(C)=O

>  <quantity measured>
CC50 at 24 h

>  <display unit>
µM

>  <comparison sign>
>

>  <reading>
279

$$$$
>  <molecule>
COc1c(C)cc(O)cc1C/C=C(\C)CC(=O)/C=C(\C)CCC[C@@H](C)C(=O)/C=C/C(C)(C)O

>  <quantity measured>
CC50 at 24 h

>  <display unit>
µM

>  <comparison sign>
=

>  <reading>
26.4

$$$$
>  <molecule>
COc1c(C)cc(O)cc1C/C=C(\C)CC(=O)/C=C(/C)CCC[C@@H](C)C(=O)/C=C/C(C)(C)O

>  <quantity measured>
CC50 at 24 h

>  <display unit>
µM

>  <comparison sign>
=

>  <reading>
26.8

$$$$
